System: Cyperus iria
Test: Preemergence weed control under flooded paddy conditions, CYPIR (Rice Flatsedge); for herbicidal effect rating, CYPIR: meaning of each grade not given here
Format: in vivo
Conditions: Rate 0.0620 kg/ha; preemergence weeds, flooded paddy; rated three to four weeks after treatment
EXPERIMENTAL_READOUT: herbicidal effect rating, CYPIR
Give bare numbers.

Known herbicidal effect rating, CYPIR results, listed for orientation:
COMPOUND	herbicidal effect rating, CYPIR
COc1ccc(OC)c(-c2nsc3ccc(-n4c(=O)cc(C(F)(F)F)n(C)c4=O)cc23)c1	9.0
Cc1ccc(OCC(=O)NS(=O)(=O)CCl)c(-c2nsc3ccc(-n4c(=O)cc(C(F)(F)F)n(C)c4=O)cc23)c1	0.0
Cn1c(C(F)(F)F)cc(=O)n(-c2ccc3snc(C(=O)NS(=O)(=O)Cc4ccccc4)c3c2)c1=O	2.0
Cn1c(C(F)(F)F)cc(=O)n(-c2ccc3snc(C(=O)Nc4cc(C(C)(C)C)on4)c3c2)c1=O	0.0
CC(O)c1nsc2ccc(-n3c(=O)cc(C(F)(F)F)n(C)c3=O)cc12 (stereo not shown)	0.0
CCOc1cccc(-c2nsc3ccc(-n4c(=O)cc(C(F)(F)F)n(C)c4=O)cc23)c1	9.0

Dear colleague, could you send me herbicidal effect rating, CYPIR for each of the items below? Thanks.
1. COC(=O)COc1ccc(OC)cc1-c1nsc2ccc(-n3c(=O)cc(C(F)(F)F)n(C)c3=O)cc12
2. CNC.Cn1c(C(F)(F)F)cc(=O)n(-c2ccc3snc(CSCC(=O)NS(C)(=O)=O)c3c2)c1=O
3. COC(=O)C(C)Oc1cccc(-c2nsc3ccc(-n4c(=O)cc(C(F)(F)F)n(C)c4=O)cc23)c1 (stereo not shown)
4. CC(Br)c1nsc2ccc(-n3c(=O)cc(C(F)(F)F)n(C)c3=O)cc12 (stereo not shown)
5. Cn1c(C(F)(F)F)cc(=O)n(-c2ccc3snc(CO[N+](=O)[O-])c3c2)c1=O
6. Cn1c(C(F)(F)F)cc(=O)n(-c2ccc3snc(-c4ccccc4OCC(=O)O)c3c2)c1=O
7. Cn1c(C(F)(F)F)cc(=O)n(-c2ccc3snc(C(N)=O)c3c2)c1=O
8. Cc1ccc(OCC(=O)NO)c(-c2nsc3ccc(-n4c(=O)cc(C(F)(F)F)n(C)c4=O)cc23)c1

Reply |
9.0
9.0
8.7
4.0
9.0
6.5
6.0
0.0

Dear colleague, could you send me herbicidal effect rating, CYPIR for each of the items below? Thanks.
1. CC(C)NC(=O)c1nsc2ccc(-n3c(=O)cc(C(F)(F)F)n(C)c3=O)cc12
2. Cn1c(C(F)(F)F)cc(=O)n(-c2ccc3snc(C(=O)O)c3c2)c1=O

Reply |
[0.0, 0.0]

----------
Tested on: Cyperus serotinus, Rottb.
Assay: Preemergence weed control under flooded paddy conditions, CYPSE (Flatsedge); note: meaning of each grade not given here
Type: in vivo
Settings: 0.2500 kg/ha, preemergence weeds, rated three to four weeks after treatment
For each entry below, report its herbicidal effect rating, CYPSE value.
Numbers only.

COMPOUND	READING
Cn1c(C(F)(F)F)cc(=O)n(-c2ccc3snc(COC(=O)c4ccccc4)c3c2)c1=O	0.0
CC(C)=NOC(=O)COc1ccc(C)cc1-c1nsc2ccc(-n3c(=O)cc(C(F)(F)F)n(C)c3=O)cc12	0.0
Cn1c(C(F)(F)F)cc(=O)n(-c2ccc3snc(N4CCOCC4)c3c2)c1=O	0.0
Cc1ccc(OCC(=O)NS(C)(=O)=O)c(-c2nsc3ccc(-n4c(=O)cc(C(F)(F)F)n(C)c4=O)cc23)c1	4.0
Cn1c(C(F)(F)F)cc(=O)n(-c2ccc3snc(NS(C)(=O)=O)c3c2)c1=O	0.0
CC(C)SCc1nsc2ccc(-n3c(=O)cc(C(F)(F)F)n(C)c3=O)cc12	0.0
CCN(CC)c1nsc2ccc(-n3c(=O)cc(C(F)(F)F)n(C)c3=O)cc12	0.0
C=CCOCc1nsc2ccc(-n3c(=O)cc(C(F)(F)F)n(C)c3=O)cc12	9.0
Cc1ccc(S(=O)(=O)NC(=O)COc2ccc(C)cc2-c2nsc3ccc(-n4c(=O)cc(C(F)(F)F)n(C)c4=O)cc23)cc1	0.0
Cn1c(C(F)(F)F)cc(=O)n(-c2ccc3snc(COC(CF)CF)c3c2)c1=O	6.0

Dear colleague, could you send me herbicidal effect rating, CYPSE for each of the items below? Thanks.
1. CCc1nsc2ccc(-n3c(=O)cc(C(F)(F)F)n(C)c3=O)cc12
2. CCOCc1nsc2ccc(-n3c(=O)cc(C(F)(F)F)n(C)c3=O)cc12
3. Cc1ccc(OCC(=O)OC(C)C(=O)O)c(-c2nsc3ccc(-n4c(=O)cc(C(F)(F)F)n(C)c4=O)cc23)c1 (racemic)
4. C=CC(C)OCc1nsc2ccc(-n3c(=O)cc(C(F)(F)F)n(C)c3=O)cc12 (stereo not drawn)
5. Cn1c(C(F)(F)F)cc(=O)n(-c2ccc3snc(COCC(F)F)c3c2)c1=O

Reply |
1: 9.0; 2: 7.0; 3: 0.0; 4: 7.0; 5: 6.0

----------
Test system: Oryza sativa, (L.) Tebonnet
Experiment: Rice tolerance to post-transplant applications under flooded paddy conditions (Example 187), ORYSAT (Rice, Tebonnet)
Conditions: 0.5000 kg/ha, rated three to four weeks after treatment
For each entry below, report its herbicidal effect rating, ORYSAT (rice tolerance) value.

Known herbicidal effect rating, ORYSAT (rice tolerance) results, listed for orientation:
COMPOUND	READING
CCc1ccc(-c2nsc3ccc(-n4c(=O)cc(C(F)(F)F)n(C)c4=O)cc23)cc1	7.0
COc1ccc(C)cc1-c1nsc2ccc(-n3c(=O)cc(C(F)(F)F)n(C)c3=O)cc12	7.0
Cc1cc(O)c(-c2nsc3ccc(-n4c(=O)cc(C(F)(F)F)n(C)c4=O)cc23)cc1C	3.0

Dear colleague, could you send me herbicidal effect rating, ORYSAT (rice tolerance) for each of the items below? Thanks.
1. Cc1nsc2ccc(-n3c(=O)cc(C(F)(F)F)n(C)c3=O)cc12
2. COc1cc(C)ccc1-c1nsc2ccc(-n3c(=O)cc(C(F)(F)F)n(C)c3=O)cc12
3. Cn1c(C(F)(F)F)cc(=O)n(-c2ccc3snc(-c4ccccc4)c3c2)c1=O
4. COC(=O)C(C)Oc1cc(C)c(C)cc1-c1nsc2ccc(-n3c(=O)cc(C(F)(F)F)n(C)c3=O)cc12 (stereo not drawn)
5. COC(=O)COc1ccc(C)cc1-c1nsc2ccc(-n3c(=O)cc(C(F)(F)F)n(C)c3=O)cc12
6. COC(=O)COc1cc(C)c(C)cc1-c1nsc2ccc(-n3c(=O)cc(C(F)(F)F)n(C)c3=O)cc12

Reply |
1. 8.0
2. 9.0
3. 8.0
4. 9.0
5. 9.0
6. 9.0

----------
Test system: Cyperus iria
Assay: Preemergence weed control under flooded paddy conditions, CYPIR (Rice Flatsedge)
Format: in vivo
Settings: 0.0320 kg/ha; preemergence, flooded paddy; rated three to four weeks after treatment
EXPERIMENTAL_READOUT: CYPIR herbicidal rating
Give bare numbers.

COMPOUND	READING
Cc1ccc(CS(=O)(=O)NC(=O)c2nsc3ccc(-n4c(=O)cc(C(F)(F)F)n(C)c4=O)cc23)cc1	0.0
Cn1c(C(F)(F)F)cc(=O)n(-c2ccc3snc(C(=O)NS(=O)(=O)Cc4ccc(Cl)cc4)c3c2)c1=O	5.0
CSCOCc1nsc2ccc(-n3c(=O)cc(C(F)(F)F)n(C)c3=O)cc12	4.0
Cn1c(C(F)(F)F)cc(=O)n(-c2ccc3snc(COC(=O)C(C)(C)C)c3c2)c1=O	2.0
COc1cc(Cl)c(C)cc1-c1nsc2ccc(-n3c(=O)cc(C(F)(F)F)n(C)c3=O)cc12	6.5

Dear colleague, could you send me CYPIR herbicidal rating for each of the items below? Thanks.
1. CC(C)N(C(C)C)S(=O)(=O)NC(=O)COc1ccccc1-c1nsc2ccc(-n3c(=O)cc(C(F)(F)F)n(C)c3=O)cc12
2. Cn1c(C(F)(F)F)cc(=O)n(-c2ccc3snc(C(C)(C)C(=O)NS(C)(=O)=O)c3c2)c1=O
3. COc1ccc(C)cc1-c1nsc2cc(F)c(-n3c(=O)cc(C(F)(F)F)n(C)c3=O)cc12
4. CN(C(=O)c1nsc2ccc(-n3c(=O)cc(C(F)(F)F)n(C)c3=O)cc12)S(=O)(=O)Cc1ccccc1
5. CC(C)N(C(C)C)S(=O)(=O)NC(=O)c1nsc2ccc(-n3c(=O)cc(C(F)(F)F)n(C)c3=O)cc12
6. Cn1c(C(F)(F)F)cc(=O)n(-c2ccc3snc(COC(=O)c4cc(Cl)nc(Cl)c4)c3c2)c1=O

Reply |
0.0
3.0
9.0
3.0
6.0
2.0

----------
Tested on: Cyperus serotinus, Rottb.
Experiment: Preemergence weed control under flooded paddy conditions, CYPSE (Flatsedge); note: meaning of each grade not given here
Type: in vivo
Settings: 0.0625 kg/ha, preemergence, rated three to four weeks after treatment
For each entry below, report its herbicidal effect rating, CYPSE value.

Known herbicidal effect rating, CYPSE results, listed for orientation:
MOLECULE	EXPERIMENTAL_READOUT	READING
COc1ccc(C(C)C)cc1-c1nsc2ccc(-n3c(=O)cc(C(F)(F)F)n(C)c3=O)cc12	herbicidal effect rating, CYPSE	0.0
COC(=O)C(C)Oc1ccccc1Oc1noc2ccc(-n3c(=O)cc(C(F)(F)F)n(C)c3=O)cc12 (stereo not drawn)	herbicidal effect rating, CYPSE	0.0
Cc1noc2cc(F)c(-n3c(=O)cc(C(F)(F)F)n(C)c3=O)cc12	herbicidal effect rating, CYPSE	7.0
Cc1ccc(OCC(=O)OCCN(C)C)c(-c2nsc3ccc(-n4c(=O)cc(C(F)(F)F)n(C)c4=O)cc23)c1	herbicidal effect rating, CYPSE	0.0
Cc1ccc(OCC(=O)n2cnc3ccccc32)c(-c2nsc3ccc(-n4c(=O)cc(C(F)(F)F)n(C)c4=O)cc23)c1	herbicidal effect rating, CYPSE	1.0

Dear colleague, could you send me herbicidal effect rating, CYPSE for each of the items below? Thanks.
1. COC(=O)COc1cc(C)c(C)cc1-c1nsc2ccc(-n3c(=O)cc(C(F)(F)F)n(C)c3=O)cc12
2. Cc1ccc(OCC(=O)OCC#Cc2ccccc2)c(-c2nsc3ccc(-n4c(=O)cc(C(F)(F)F)n(C)c4=O)cc23)c1
3. CCc1ccc(-c2nsc3ccc(-n4c(=O)cc(C(F)(F)F)n(C)c4=O)cc23)cc1
4. Cc1ccc(OC(C)C#N)c(-c2nsc3ccc(-n4c(=O)cc(C(F)(F)F)n(C)c4=O)cc23)c1 (stereo not drawn)

Reply |
[7.0, 0.0, 2.0, 0.0]
